Would you mind telling me the reported nuclei count of each entry?
assay: endothelial E-selectin expression blockers – imaging, HUVEC, immunofluorescence, MLSMR starter and 10KST1 sets, primary screen (AID 487); settings: HUVEC TNFalpha-induced E-selectin immunofluorescence imaging, at 2 µM; measured here: cell number, toxicity;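 further: 100% = median nuclei count of all wells on the same plate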

Challenge: What nuclei count value was documented for this compound, CCOc1ccc(NC(=O)CN2CCN(CC(=O)Nc3ccc(F)c(F)c3)CC2)cc1 ?
Response given: 99.8%

Challenge: Try this compound too: CC(=O)OC[C@H]1O[C@@H](n2ncc(=O)[nH]c2=O)[C@H](OC(C)=O)[C@@H]1OC(C)=O
Response given: 116%

Challenge: Try this compound too: CC(=O)Nc1nc(-c2ccc(Cl)cc2)nc(C)c1C(C)=O
Response given: 90.1%

Challenge: Try this compound too: Cc1nc(C)c(C(=O)Nc2ccc(C)c(F)c2)o1
Response given: 120%

Challenge: Try this compound too: O=C1CCc2cc(OCCCCc3nnnn3C3CCCCC3)ccc2N1
Response given: 136%

Challenge: Try this compound too: Cc1nc2sc(C(c3cccc(F)c3)N3CCN(C(=O)c4ccco4)CC3)c(O)n2n1 (stereo not given)
Response given: 112%

Challenge: Try this compound too: COc1ccc(N2CCN(C(=O)CSc3nnc(Cn4nnc5ccccc54)n3C)CC2)cc1
Response given: 101%

Challenge: Try this compound too: Cc1ccc(S(=O)(=O)N(C)c2ccc(OCC(=O)OCc3c(C)noc3C)cc2)cc1
Response given: 108%

Challenge: Try this compound too: O=C(COc1ccc(Cl)cc1)Nc1ncccn1
Response given: 87.1%

Challenge: Try this compound too: CCOCCn1cnc2sc(C(=O)NCC(=O)OCC)c(C)c2c1=O
Response given: 165%

====

assay: TLR3 IRF3 reporter activation blockers – cell-based, poly I:C stimulus, luciferase, 10K MLSCN set, primary screen (AID 602277); conditions: HEK293-TLR3 RL24 IRF3 luciferase reporter, at 10 µM, stronger effect = higher value
Activity calls are given as the source filed them.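 The calls were made as follows: active = inhibition of the reporter signal at or above 50%; inactive = inhibition below 50%.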
Quantity name: inhibition

Challenge: What inhibition value was documented for this compound, C=CCN1C(=O)/C(=C2/Sc3ccccc3N2C)SC1=Nc1c(C)n[nH]c1C ?
Response given: 10.1% (inactive)

Challenge: Try this compound too: COC(=O)C(C)Oc1ccc2c3c(c(=O)oc2c1)CCCCC3 (stereo unspecified)
Response given: 12.4% (inactive)

Challenge: Try this compound too: COc1ccc(-c2cc(C(F)F)n3ncc(C(=O)NCC4CCCO4)c3n2)cc1 (stereo unspecified)
Response given: 11.4% (inactive)

Challenge: Try this compound too: O=C1CS/C(=N\C(=O)N2c3ccccc3Sc3ccccc32)N1
Response given: 27.5% (inactive)

Challenge: Try this compound too: CCc1nnc(NC(=O)CSc2nnc(Cc3ccccc3)n2-c2ccc(OC)cc2)s1
Response given: 12% (inactive)

Challenge: Try this compound too: Cc1ccc(C)c(S(=O)(=O)NCc2ccc(C(=O)N3CCN(C)CC3)cc2)c1
Response given: 19.6% (inactive)

Challenge: Try this compound too: CCn1c(=O)cc(SCC(=O)Nc2ccc3c(c2)OCO3)c2ccccc21
Response given: -13.5% (inactive)

Challenge: Try this compound too: Cc1c(Br)c(C(F)(F)F)nn1CC(=O)NCCN1CCOCC1
Response given: 21.8% (inactive)

Challenge: Try this compound too: COc1ccccc1NC(=O)c1ccc(NC(=O)CSc2nnnn2C)cc1
Response given: 25.6% (inactive)

Challenge: Try this compound too: OCc1nc2ccccc2n1CC(O)Cn1ccc2ccccc21 (stereo unspecified)
Response given: -8.82% (inactive)

Challenge: Try this compound too: CC(C)(C)N=C1NC(=NC(C)(C)C)c2ccccc21
Response given: 5.38% (inactive)
